- target under test: platelet derived growth factor protein kinase (PDGFR) (Homo sapiens, UniProt P09619)
- Sequence (P09619 33-1106): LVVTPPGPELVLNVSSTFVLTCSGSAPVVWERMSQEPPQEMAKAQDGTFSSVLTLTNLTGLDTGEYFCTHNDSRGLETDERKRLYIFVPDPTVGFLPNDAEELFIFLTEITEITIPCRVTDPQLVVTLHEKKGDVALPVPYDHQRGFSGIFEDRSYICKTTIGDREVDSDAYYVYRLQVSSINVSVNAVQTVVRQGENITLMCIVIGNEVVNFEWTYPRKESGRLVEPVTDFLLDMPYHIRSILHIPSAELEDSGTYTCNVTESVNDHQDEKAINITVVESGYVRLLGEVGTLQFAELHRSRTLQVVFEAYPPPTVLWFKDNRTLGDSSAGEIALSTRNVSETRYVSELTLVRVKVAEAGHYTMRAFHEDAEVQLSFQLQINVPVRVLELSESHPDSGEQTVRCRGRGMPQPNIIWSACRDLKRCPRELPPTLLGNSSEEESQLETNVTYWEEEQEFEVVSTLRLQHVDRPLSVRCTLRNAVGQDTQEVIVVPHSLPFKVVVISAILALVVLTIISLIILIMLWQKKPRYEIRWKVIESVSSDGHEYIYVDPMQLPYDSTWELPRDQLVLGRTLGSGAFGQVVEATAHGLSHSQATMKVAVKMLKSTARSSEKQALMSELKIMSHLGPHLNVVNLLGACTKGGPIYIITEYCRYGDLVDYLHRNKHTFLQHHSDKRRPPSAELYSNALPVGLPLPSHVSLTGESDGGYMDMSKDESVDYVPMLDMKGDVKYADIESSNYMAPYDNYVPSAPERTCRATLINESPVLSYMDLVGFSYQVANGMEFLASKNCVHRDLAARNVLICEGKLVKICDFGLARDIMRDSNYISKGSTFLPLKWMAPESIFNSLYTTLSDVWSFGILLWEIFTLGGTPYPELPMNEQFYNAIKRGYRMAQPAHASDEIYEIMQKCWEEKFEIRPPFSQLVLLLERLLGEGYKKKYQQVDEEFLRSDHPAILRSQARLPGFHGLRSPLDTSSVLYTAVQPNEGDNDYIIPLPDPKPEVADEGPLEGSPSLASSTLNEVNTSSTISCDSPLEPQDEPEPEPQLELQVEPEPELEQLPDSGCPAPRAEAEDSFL
- assay remarks: PDGF-R ELISA
- Assay type: cell-based
- Design: concentration or dose not given beside the values
// reported PDGF Kinase % Inhibition for each item listed
metric: PDGF Kinase % Inhibition (%)

CN(C)c1ccc(C=C2C(=O)Nc3ccc(I)cc32)c2ccccc12
−21.5
Cc1cc(C=C2C(=O)Nc3ccc(I)cc32)cc(C)c1O
20.9
O=C1Nc2ccc(I)cc2C1=Cc1ccc2c(c1)Cc1ccccc1-2
7.6
Cc1ccc(C=C2C(=O)Nc3c(Br)cc(Br)cc32)o1
−3.2
Cc1ccc(C=C2C(=O)Nc3ccc(I)cc32)o1
9.3
O=C1Nc2ccc(I)cc2C1=Cc1ccc([N+](=O)[O-])c(O)c1
42.5
O=C1Nc2ccc(I)cc2C1=Cc1cc2c3c(c1O)CCCN3CCC2
12.6
CNS(=O)(=O)c1ccc2c(c1)C(=Cc1cccc(C#N)c1)C(=O)N2
5.0
O=C1Nc2ccc(I)cc2C1=Cc1csc([N+](=O)[O-])c1
14.6
